# Test system: KRAS-mutant PDC tumor spheroid with HUVEC/MSC, viability
# experiment.summary: Anticancer human tumor 327498-153-R-J2-PDC patient-derived uterine carcinosarcoma cell line growth inhibition [KRAS2]
# conditions.used: second compound 1 µM; first compound 1 µM; stronger effect = lower value
# Excerpt: Multicellular complex tumor spheroid response to RAS pathway inhibitors in combination with a targeted agents in patient-derived cell lines with oncogenic KRAS variants from multiple cancer types A high-throughput screen of multi-cell type tumor spheroids was designed to identify active combinations of targeted small molecules and KRAS pathway inhibitors. […] Compounds. […] If the clinical Cmax for an agent had not been determined, the highest concentration tested was 10 microM. […]
observation.type: viability, T/C (%)
Kindly answer with a numeric value in %, unit omitted.

Reference set (4 entries):
{"columns": ["compound", "viability, T/C [%]"],
 "data": [
  ["CC(C)NCC(C(=O)N1CCN(c2ncnc3c2C(C)CC3O)CC1)c1ccc(Cl)cc1 (stereo unspecified) + CC1OCC2(CCN(c3cnc(Sc4ccnc(N)c4Cl)c(N)n3)CC2)C1N", 8.77],
  ["CC(C)NCC(C(=O)N1CCN(c2ncnc3c2C(C)CC3O)CC1)c1ccc(Cl)cc1 (stereo unspecified) + COc1cc2nc(C)nc(NC(C)c3cc(N)cc(C(F)(F)F)c3)c2cc1OC1CCOC1", 17.7],
  ["CCNC(=O)CC1N=C(c2ccc(Cl)cc2)c2cc(OC)ccc2-n2c(C)nnc21 (stereo unspecified) + COc1cc2nc(C)nc(NC(C)c3cc(N)cc(C(F)(F)F)c3)c2cc1OC1CCOC1", 22.6],
  ["Cn1nccc1Nc1nccc(-c2cc3c(s2)C(C)(C)N(CCN2CCOCC2)C3=O)n1 + C=CC(=O)N1CCN(c2nc(=O)n(-c3c(C)ccnc3C(C)C)c3nc(-c4c(O)cccc4F)c(F)cc23)C(C)C1", 55.2]
]}

Req: Please look up its viability, T/C: COC(=O)c1ccc2c(C(=Nc3ccc(N(C)C(=O)CN4CCN(C)CC4)cc3)c3ccccc3)c(O)[nH]c2c1 + C=CC(=O)N1CCN(c2nc(OCC3CCCN3C)nc3c2CCN(c2cccc4cccc(C)c24)C3)CC1CC#N
Resp: 9.18

Req: Returns the measured viability, T/C for the input compound. Input: CC1OCC2(CCN(c3cnc(Sc4ccnc(N)c4Cl)c(N)n3)CC2)C1N (stereo unspecified) + C=CC(=O)N1CCN(c2nc(=O)n(-c3c(C)ccnc3C(C)C)c3nc(-c4c(O)cccc4F)c(F)cc23)C(C)C1
Resp: 22.9

Req: If you can, please state the reported viability, T/C value of CCN1CCN(Cc2ccc(Nc3ncc(F)c(-c4cc(F)c5nc(C)n(C(C)C)c5c4)n3)nc2)CC1 + COc1cc2nc(C)nc(NC(C)c3cc(N)cc(C(F)(F)F)c3)c2cc1OC1CCOC1 .
Resp: 42.8

Req: For the compound shown here, CC1COCCN1c1cc(-c2ccnn2C)c2ccnc(-c3ccn[nH]3)c2n1 (stereo unspecified) + CNCc1ccccc1-c1csc(C(C)Nc2nc(C)nc3cc(OC)c(OC)cc23)c1 , give the reported viability, T/C.
Resp: 3.98

Req: Please look up its viability, T/C: CCN1CCN(Cc2ccc(Nc3ncc(F)c(-c4cc(F)c5nc(C)n(C(C)C)c5c4)n3)nc2)CC1 + CC1OCC2(CCN(c3cnc(Sc4ccnc(N)c4Cl)c(N)n3)CC2)C1N
Resp: 26.5

Req: What does the record list as viability, T/C for COc1cc(Nc2ncc3c(n2)-c2ccc(Cl)cc2C(c2c(F)cccc2OC)=NC3)ccc1C(=O)O + CC1OCC2(CCN(c3cnc(Sc4ccnc(N)c4Cl)c(N)n3)CC2)C1N ?
Resp: 7.15

Req: Would you mind telling me what viability, T/C value was observed for CC1(C)CCC(CN2CCN(c3ccc(C(=O)NS(=O)(=O)c4ccc(NCC5CCOCC5)c([N+](=O)[O-])c4)c(Oc4cnc5[nH]ccc5c4)c3)CC2)=C(c2ccc(Cl)cc2)C1 + C=CC(=O)N1CCN(c2nc(OCC3CCCN3C)nc3c2CCN(c2cccc4cccc(C)c24)C3)CC1CC#N ?
Resp: 48

----------
# key: entry, value: viability, T/C
# Tested on: KRAS-mutant PDC tumor spheroid with HUVEC/MSC, viability
# experiment.summary: Anticancer human tumor 327498-153-R-J2-PDC cell line growth inhibition [KRAS2];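 note: spheroids exposed to agents for seven days before reading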;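 for viability, T/C: 100% = DMSO vehicle wells so lower means fewer viable cells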
# conditions.used: second compound 1 µM; first compound 1 µM; stronger effect = lower value
Lab book: enter the figure in %, no units written.

{"columns": ["molecule", "observation.type", "observed.result"],
 "data": [
  ["CC1(C)CCC(CN2CCN(c3ccc(C(=O)NS(=O)(=O)c4ccc(NCC5CCOCC5)c([N+](=O)[O-])c4)c(Oc4cnc5[nH]ccc5c4)c3)CC2)=C(c2ccc(Cl)cc2)C1 + COc1cc2nc(C)nc(NC(C)c3cc(N)cc(C(F)(F)F)c3)c2cc1OC1CCOC1", "viability, T/C", 67.8],
  ["Cn1nccc1Nc1nccc(-c2cc3c(s2)C(C)(C)N(CCN2CCOCC2)C3=O)n1 + CNCc1ccccc1-c1csc(C(C)Nc2nc(C)nc3cc(OC)c(OC)cc23)c1", "viability, T/C", 48.2]
]}

Req: # get_value(readout='viability, T/C', item= Cn1nccc1Nc1nccc(-c2cc3c(s2)C(C)(C)N(CCN2CCOCC2)C3=O)n1 + COc1cc2nc(C)nc(NC(C)c3cc(N)cc(C(F)(F)F)c3)c2cc1OC1CCOC1 )
Resp: 49.4

Req: Entry CC1(C)CCC(CN2CCN(c3ccc(C(=O)NS(=O)(=O)c4ccc(NCC5CCOCC5)c([N+](=O)[O-])c4)c(Oc4cnc5[nH]ccc5c4)c3)CC2)=C(c2ccc(Cl)cc2)C1 + C=CC(=O)N1CCN(c2nc(=O)n(-c3c(C)ccnc3C(C)C)c3nc(-c4c(O)cccc4F)c(F)cc23)C(C)C1 : reported viability, T/C = ?
Resp: 52.2

Req: Please report the recorded viability, T/C for CCNC(=O)CC1N=C(c2ccc(Cl)cc2)c2cc(OC)ccc2-n2c(C)nnc21 (stereo not given) + CNCc1ccccc1-c1csc(C(C)Nc2nc(C)nc3cc(OC)c(OC)cc23)c1 .
Resp: 40.3

----------
# Tested on: KRAS-mutant PDC tumor spheroid with HUVEC/MSC, viability
# experiment.summary: Anticancer human tumor 327498-153-R-J2-PDC cell line growth inhibition [KRAS2];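 note: spheroids exposed to agents for seven days before reading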
# conditions.used: curve of first compound; second compound 3.16 µM
observation.type: IC50 (nM)
Please reply with the bare figure in nM and do not write the unit itself.

{"columns": ["compound", "IC50, nM"],
 "data": [
  ["COc1cc2nccc(Oc3ccc(NC(=O)C4(C(=O)Nc5ccc(F)cc5)CC4)cc3)c2cc1OC + COc1cc2nc(C)nc(NC(C)c3cc(N)cc(C(F)(F)F)c3)c2cc1OC1CCOC1", 385]
]}

Req: What is its IC50 for KRAS-mutant PDC tumor spheroid with HUVEC/MSC, viability? Entry: CC1(C)CCC(CN2CCN(c3ccc(C(=O)NS(=O)(=O)c4ccc(NCC5CCOCC5)c([N+](=O)[O-])c4)c(Oc4cnc5[nH]ccc5c4)c3)CC2)=C(c2ccc(Cl)cc2)C1 + C=CC(=O)N1CCN(c2nc(=O)n(-c3c(C)ccnc3C(C)C)c3nc(-c4c(O)cccc4F)c(F)cc23)C(C)C1
Resp: 1210

----------
Below is a list of entries, each paired with its recorded viability, T/C value.
# System: KRAS-mutant PDC tumor spheroid with HUVEC/MSC, viability
# experiment.summary: Anticancer human tumor 327498-153-R-J2-PDC cell line growth inhibition [KRAS2];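 note: spheroids exposed to agents for seven days before reading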;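 for viability, T/C: 100% = DMSO vehicle wells so lower means fewer viable cells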
# conditions.used: second compound 3.16 µM; first compound 0.000316 µM; stronger effect = lower value
Output spec: scalar in %, unitless text.

{"columns": ["molecule", "measurement.units", "observed.result"],
 "data": [
  ["CN(C)C/C=C/C(=O)Nc1cc2c(Nc3ccc(F)c(Cl)c3)ncnc2cc1O[C@H]1CCOC1 + C=CC(=O)N1CCN(c2nc(=O)n(-c3c(C)ccnc3C(C)C)c3nc(-c4c(O)cccc4F)c(F)cc23)C(C)C1", "%", 82.6]
]}

Req: I'd like to know its viability, T/C. The molecule in question is CN(C)C/C=C/C(=O)Nc1cc2c(Nc3ccc(F)c(Cl)c3)ncnc2cc1O[C@H]1CCOC1 + C=CC(=O)N1CCN(c2nc(OCC3CCCN3C)nc3c2CCN(c2cccc4cccc(C)c24)C3)CC1CC#N
Resp: 1.53

Req: Requested read-out: viability, T/C. Entry: CC(C)n1nc(-c2ccc3oc(N)nc3c2)c2c(N)ncnc21 + C=CC(=O)N1CCN(c2nc(OCC3CCCN3C)nc3c2CCN(c2cccc4cccc(C)c24)C3)CC1CC#N
Resp: 0.28

Req: Look at this molecule and give its reported viability, T/C. CC(=O)Nc1cccc(-n2c(=O)n(C3CC3)c(=O)c3c(Nc4ccc(I)cc4F)n(C)c(=O)c(C)c32)c1 + CNCc1ccccc1-c1csc(C(C)Nc2nc(C)nc3cc(OC)c(OC)cc23)c1
Resp: 38.7

Req: # get_value(readout='viability, T/C', item= CN(C)C/C=C/C(=O)Nc1cc2c(Nc3ccc(F)c(Cl)c3)ncnc2cc1O[C@H]1CCOC1 + CNCc1ccccc1-c1csc(C(C)Nc2nc(C)nc3cc(OC)c(OC)cc23)c1 )
Resp: 62.1

Req: Name the reported viability, T/C value associated with the molecule CC(C)n1nc(-c2ccc3oc(N)nc3c2)c2c(N)ncnc21 + CC1OCC2(CCN(c3cnc(Sc4ccnc(N)c4Cl)c(N)n3)CC2)C1N
Resp: 31.4

Req: Query: viability, T/C; subject: Cn1ncnc1[C@H]1c2n[nH]c(=O)c3cc(F)cc(c23)N[C@@H]1c1ccc(F)cc1 + C=CC(=O)N1CCN(c2nc(=O)n(-c3c(C)ccnc3C(C)C)c3nc(-c4c(O)cccc4F)c(F)cc23)C(C)C1
Resp: 55.9

Req: What viability, T/C value was documented for this molecule, CC(=O)Nc1cccc(-n2c(=O)n(C3CC3)c(=O)c3c(Nc4ccc(I)cc4F)n(C)c(=O)c(C)c32)c1 + C=CC(=O)N1CCN(c2nc(OCC3CCCN3C)nc3c2CCN(c2cccc4cccc(C)c24)C3)CC1CC#N ?
Resp: 0.19

Req: Quick one: viability, T/C of Cn1ncnc1[C@H]1c2n[nH]c(=O)c3cc(F)cc(c23)N[C@@H]1c1ccc(F)cc1 + C=CC(=O)N1CCN(c2nc(OCC3CCCN3C)nc3c2CCN(c2cccc4cccc(C)c24)C3)CC1CC#N ?
Resp: 0.23

Req: Give its viability, T/C value. Item: CC(=O)Nc1cccc(-n2c(=O)n(C3CC3)c(=O)c3c(Nc4ccc(I)cc4F)n(C)c(=O)c(C)c32)c1 + CC1OCC2(CCN(c3cnc(Sc4ccnc(N)c4Cl)c(N)n3)CC2)C1N
Resp: 26.9

Req: Look at this molecule and give its reported viability, T/C. CC(C)n1nc(-c2ccc3oc(N)nc3c2)c2c(N)ncnc21 + CNCc1ccccc1-c1csc(C(C)Nc2nc(C)nc3cc(OC)c(OC)cc23)c1
Resp: 20.1
